The following molecules are shown together with reported inhibition at 5 µM values.
Target: PAF Receptor (Oryctolagus cuniculus, UniProt G1TEI7)
Construct: from tissue
Sequence (G1TEI7 1-342): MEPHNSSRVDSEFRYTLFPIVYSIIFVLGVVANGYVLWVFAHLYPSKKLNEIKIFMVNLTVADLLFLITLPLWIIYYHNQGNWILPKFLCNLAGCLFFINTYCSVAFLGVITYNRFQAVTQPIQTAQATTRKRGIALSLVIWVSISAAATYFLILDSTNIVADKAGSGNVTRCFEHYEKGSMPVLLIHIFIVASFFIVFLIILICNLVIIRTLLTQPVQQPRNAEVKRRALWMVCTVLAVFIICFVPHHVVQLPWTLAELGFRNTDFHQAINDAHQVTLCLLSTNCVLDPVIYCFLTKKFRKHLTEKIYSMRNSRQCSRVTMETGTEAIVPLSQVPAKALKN
Assay: % Inhibition of PAF Receptor (published bioassay, Table I)
Type: binding
Details: Dose 5 μM

Answered cases to consult:
>>> result("CCCC1=C[C@@]2(OC)C(=CC1=O)O[C@H](c1ccc(OC)c(OC)c1)[C@@H]2C")
"90 to 95%"
>>> result("C=CCC1=C[C@]2(OCC)C(=CC1=O)O[C@H](c1ccc(OC)c(OC)c1)[C@@H]2C")
"73%"
>>> result("CCCC1=C[C@]2(OC)C(=CC1=O)O[C@H](c1ccc(OC)c(OC)c1)[C@@H]2C (single isomer, unassigned)")
"61%"

Alright, here's another molecule for you.
Record summary for C=CCC1=C2OC(c3ccc(OC)c(OC)c3)C(C)C2(OC)C=CC1=O (stereo not shown) : reported inhibition at 5 µM = 57%
